# target.or.test.system: Yer184c (UniProt P39961)
# Sequence: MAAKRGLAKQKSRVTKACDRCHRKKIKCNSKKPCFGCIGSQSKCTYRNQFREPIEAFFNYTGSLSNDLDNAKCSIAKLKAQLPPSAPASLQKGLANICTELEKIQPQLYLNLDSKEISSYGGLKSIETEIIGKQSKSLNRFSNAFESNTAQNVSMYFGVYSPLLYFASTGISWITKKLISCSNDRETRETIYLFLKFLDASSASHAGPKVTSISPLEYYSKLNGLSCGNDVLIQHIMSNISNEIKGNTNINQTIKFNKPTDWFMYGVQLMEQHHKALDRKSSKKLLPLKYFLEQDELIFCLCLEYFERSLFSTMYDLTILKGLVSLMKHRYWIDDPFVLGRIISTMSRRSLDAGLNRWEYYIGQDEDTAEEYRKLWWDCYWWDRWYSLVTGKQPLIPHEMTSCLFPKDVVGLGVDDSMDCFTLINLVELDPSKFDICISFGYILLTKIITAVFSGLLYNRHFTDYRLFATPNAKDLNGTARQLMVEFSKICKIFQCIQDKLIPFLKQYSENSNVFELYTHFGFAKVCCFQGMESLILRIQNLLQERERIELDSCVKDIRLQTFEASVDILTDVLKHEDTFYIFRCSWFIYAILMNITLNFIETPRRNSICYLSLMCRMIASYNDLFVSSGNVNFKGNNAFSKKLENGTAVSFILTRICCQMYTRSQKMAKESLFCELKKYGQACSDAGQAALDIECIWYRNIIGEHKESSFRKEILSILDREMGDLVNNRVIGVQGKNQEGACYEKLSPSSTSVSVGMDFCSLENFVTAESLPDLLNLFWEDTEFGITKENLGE
# experimental.protocol: PBM E-score (8-mer binding enrichment) (E-score (-0.5 to 0.5)); higher = stronger / more preferred TF binding
# condition.context: protein concentration: 100 nM; construct: GST-full length
Whole data set: some 33,000 sequences, median “E-score (-0.5 to 0.5)” near -0.016, cut for the highest 2% near 0.3. The full list was thinned out, with the highest values kept by preference.
Outcome: 1.0 for PBM E-score of at least 0.2; 0.0 for anything lower.

Query block: // inclusive: PBM E-score at least 0.2? input: `AAGCGCTC`
Result block: 0.0

Query block: Kindly determine if PBM E-score recorded for `AGCTACCT` is above or exactly 0.2.
Result block: 0.0

Query block: Say whether `AAGCGCCA` shows PBM E-score of 0.2 or more.
Result block: 0.0

Query block: Say whether `TGCCGACA` shows PBM E-score of 0.2 or more.
Result block: 1.0

Query block: I'd appreciate it if you could say whether `GCTGCGAA` has PBM E-score at least equal to 0.2.
Result block: 0.0

Consider the record given below.
Query block: Evaluate `ACCCGAAT` : PBM E-score at minimum 0.2?
Result block: 0.0

This collection of values is drawn from the supplement of paper PMC3334620.
